Hello, the source for this data is patent US12195427B2, in case you need it.

# test.system: MASP-2 CCP2-SP (Homo sapiens (Human))
# Sequence (O00187 445-686): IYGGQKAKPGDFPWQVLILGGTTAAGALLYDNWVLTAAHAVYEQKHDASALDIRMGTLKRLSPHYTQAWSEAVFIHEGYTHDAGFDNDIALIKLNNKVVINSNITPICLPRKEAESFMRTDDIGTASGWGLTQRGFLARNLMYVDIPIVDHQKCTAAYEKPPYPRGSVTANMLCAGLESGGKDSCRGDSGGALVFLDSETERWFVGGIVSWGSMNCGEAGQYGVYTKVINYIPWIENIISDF
# Sequence (O00187 364-432 partner): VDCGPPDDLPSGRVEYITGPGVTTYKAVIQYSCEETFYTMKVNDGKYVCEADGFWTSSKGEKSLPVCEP
# protocol.text: MASP-2 co-crystallization, X-ray crystallography and structure analysis (H-bonds, van der Waals contacts)
# condition.context: Table A6-1 pharmacophore angle; Methyl-amino-pyridine compounds
Listed molecules paired with reported a(N1, CA1, O1) b)

| molecule | a(N1, CA1, O1) b) |
| --- | --- |
| Cc1nc(N)ccc1CNC(=O)[C@H](C)NC(=O)[C@H]1C[C@@H](c2cccc3ccccc23)CCN1.Cl.Cl [1297_4] | 174.41 |
| Cc1nc(N)ccc1CNC(=O)C(C)NC(=O)[C@H]1C[C@H](c2cccc(-c3ccccc3)c2)CN1 (stereo in doubt) | 174.23 |
| Cc1nc(N)ccc1CNC(=O)[C@H](C)NC(=O)c1cc(Cc2ccccc2)n[nH]1 | 173.97 |
| Cc1nc(N)ccc1CNC(=O)[C@H](C)NC(=O)[C@H]1C[C@H](Cc2cccc(Cl)c2)CN1.Cl.Cl [1328_4] | 173.49 |
